Data provenance is patent US20210269549A1.

- System: human uterine cancer cells
- assay notes: ADC assay on human uterine cancer cells using Fab-anti-mouse IgG Fc (Duocarmycin DM conjugated or unconjugated)
- Type: cell-based
- study conditions: isotype-specific unconjugated Fab, 4 days
- Method: The cytotoxic effect of anti-human SAS1B monoclonal antibodies SB1, SB3 and SB4 on human uterine cancer cells was investigated by ADC assay using Fab-anti-mouse IgG Fc conjugated to Duocarmycin DM with a cleavable linker. An average of 3 experiments were done in triplicate. […] At 0.01 nM the viability was only 40% compared to ˜80% viability for SB4 mAb. […]
measurement kind: Cytotoxic effect

molecule: SB4: mouse anti-human SAS1B monoclonal antibody, IgG2a; VH SEQ ID NO:16, VL SEQ ID NO:17 (antibody, listed as Mus musculus, V domains shown) VH: EVQLQQSGPELVKPGSSVKISCKPSGYTFTDYNMVWMKQSHGKSLEWIGAINPNNGGTTYNQKFKGKATLTVDKSSSTAYMELRSLTSEDSAVYYCAPNWDWFAYWGQGTLVTVSA VL: DVLMTQTPLSLPVSLGDQASISCRSSQSILHSNGNTYLEWYLQKPGQSPKLLIYKVSNRFSGVPDRFSGSGSGTDFTLKISRVEAEDLGVYYCFQGSHVPFTFGSGTKLEIK
measurement kind: Cytotoxic effect
readout value: no cytotoxic effect
--
molecule: SB3: mouse anti-human SAS1B monoclonal antibody, IgG2b; VH SEQ ID NO:14, VL SEQ ID NO:15 (antibody, listed as Mus musculus, V domains shown) VH: EVQLQQSGPELVKPGSSVKISCKASGYTFTDYNMVWVKQSHGKSLEWIGAVNPNNGGTSYNQKFKGKATLTVDKSSSTAYMELRSLTSEDSAVYYCVPNWDWFAYWGQGTLVTVSA VL: DVLMTQTPLSLPVSLGDQASISCRSSQSLVHSNGNTYLEWYLQKPGQSPNLLIYKVSNRFSGVPDRFSGSGSGTDFTLKISRVEAEDLGVYYCFQGSHVPFTFGSGTKLEIK
measurement kind: Cytotoxic effect
readout value: no cytotoxic effect
